Please respond with reported melting point for every item in the list.

[
  {
    "compound": "CCCCc1ccc(C(=O)NCCCCCCO)cc1",
    "melting point": "80 to 81 °C"
  },
  {
    "compound": "COC(=O)c1ccc(C(=O)Nc2c(C)c(C)c3c(c2C)C(c2ccc(C(C)C)cc2)C(C)(C)O3)cc1 (stereo not drawn)",
    "melting point": "220 to 223 °C"
  }
]

Kindly give each listed record's melting point.
1. Cc1nn2ccccc2c1SC#N
2. CNC(=O)NCCN1CCC(Nc2nc3ccccc3n2Cc2cnc(C)o2)CC1
3. OC1(C#Cc2ccc(OCCOc3ccccc3)cc2)CN2CCC1CC2 (stereo not drawn)

111 to 113 °C
203 °C
207 to 208 °C

Kindly give each listed record's melting point.
1. CCCCCCCNC(=O)Nc1ccc(N2CCOCC2)cc1C(=O)NCC1CCN(C(c2ccccc2)c2ccccc2)CC1
2. Cc1ccccc1CCc1c(C(C)C)nc(C(C)C)c(CO)c1-c1ccc(F)cc1

153 to 155 °C
125 to 126 °C

Kindly give each listed record's melting point.
1. CCOc1ccc(S(C)(=O)=O)cc1C(=O)Nc1c(C(N)=O)nn(CCOC)c1CC
2. Cc1nn(C)c(NCC(C)(C)C)c1NCc1ccc(F)cc1
3. Cc1nn(C)c(F)c1C(=O)Nc1ccccc1C(C)CC(C)(C)C (stereo not drawn)
4. CSc1sc(C(N)=O)c2c1-c1nn(C)cc1CC2
5. Cc1cccc(NC(=O)NC2C(=O)N(CC34CC5CC(CC(C5)C3)C4)c3ccccc3N(c3ccccc3)C2=O)c1 (stereo not drawn)
6. NC(=O)NCC(C(=O)O)C(F)(F)F (stereo not drawn)

1. 190 to 192 °C
2. 32 to 39 °C
3. 78 to 80 °C
4. 285 to 286 °C
5. 244 to 246 °C
6. 149 to 150 °C

###

Please respond with reported melting point for every item in the list.

Recorded results for 5 compounds are shown here.
[
  {
    "compound": "O=C1Nc2cccnc2N(C(=O)CN2CCC(CCCN3CCCCC3)CC2)c2ccccc21",
    "value-measured": "202 to 203 °C"
  },
  {
    "compound": "CCCCCCCCCCCCCCCCCNC(=O)O[C@@H]1CCO[C@H]1CO (relative stereo)",
    "value-measured": "77 to 78 °C"
  },
  {
    "compound": "OCC1OC(n2cnc3c(NC4CC=CCC4c4cccs4)ncnc32)C(O)C1O (stereo not drawn)",
    "value-measured": "105 to 110 °C"
  },
  {
    "compound": "COC(=O)c1cc(F)c(OC)nc1Nc1ccc(F)cc1F",
    "value-measured": "160 to 161 °C"
  },
  {
    "compound": "CC(C)(S)C(NC(=O)c1ccc(Cl)cc1)C(=O)O (stereo not drawn)",
    "value-measured": "174 °C"
  }
]

Kindly give each listed record's melting point.
1. CC(C)n1nc(C(Cl)C(=O)c2ccc(F)cc2)ccc1=O (stereo not drawn)
2. CCOC(=O)CC12CC(c3ccccc31)c1ccccc12
3. CCC(Br)=C1NC(=O)N(C(C(=O)Nc2cc(NC(=O)C(CC)Oc3ccc(C(C)(C)CC)cc3C(C)(C)CC)ccc2Cl)C(=O)C(C)(C)C)C1=O (stereo not drawn)
4. COC(=O)C=Cc1nn(-c2ccccc2)c2c1CCC2

1: 86.5 to 88 °C; 2: 81 to 84 °C; 3: 129 to 131 °C; 4: 147 to 148 °C

Kindly give each listed record's melting point.
1. CN1C(=O)C(NC(=O)NCc2ccccc2)N=C(c2ccccc2)c2ccccc21 (stereo not drawn)
2. CNCCCN1CCc2cc(OC)c(OC)cc2CC1=O
3. CS(=O)(=O)N(Cc1ccc(C(F)(F)F)cc1)CC(O)(Cn1cncn1)c1ccc(Cl)cc1Cl (stereo not drawn)
4. O=c1[nH]c2cc(Br)cc(Br)c2c(=O)n1Cc1ccccc1Cl
5. COc1cc(Oc2cccc(C(F)(F)F)c2)nc(C(=O)NCCSCCF)c1
6. O=c1n(CCCF)nnn1-c1ccc([N+](=O)[O-])cc1F
7. O=C(Cc1ccc(OCc2cccs2)cc1)NC1(C(=O)O)Cc2ccc(-c3ccc(Cl)cc3)cc2C1 (stereo not drawn)

1: 240 to 242 °C; 2: 68 to 70 °C; 3: 139 to 141 °C; 4: 133 to 136 °C; 5: 82 to 84 °C; 6: 86 to 89 °C; 7: 201 °C

Kindly give each listed record's melting point.
1. O=[N+]([O-])c1ccc(OCC2CC2)c(C(F)(F)F)c1
2. CCCCCCCCCCCCc1ccc(COc2cc(C(=O)O)nc3ccc(C)cc23)cc1
3. CC(=O)N1CCN(c2nc(Nc3ccc(F)cc3F)c(C(=O)O)cc2F)CC1
4. O=C1C=CC(c2ccccc2)C2(c3ccccc3)CN(C(=O)Cc3ccccc3)CC12 (racemic)
5. Cc1oc(-c2ccccc2)nc1COc1ccc(COc2ncccc2CC#N)cn1
6. C[C@H]1[C@H](O)CN1c1c(F)cc2c(=O)c(C(=O)O)cn(C3CC3)c2c1F (relative stereo)
7. O=C1CCC(N2C(=O)c3cccc(NCC(=O)N4CCC4)c3C2=O)C(=O)N1 (stereo not drawn)

["41 to 44 °C", "95 to 96 °C", "243 to 244 °C", "188 °C", "110 to 111 °C", "215 to 218 °C", "272 to 274 °C"]

Kindly give each listed record's melting point.
1. Nc1nc2c(c(=O)n1N)Cc1nc(N)n(N)c(=O)c1C2
2. CCC(=O)OC1=C(c2nnc(-c3ccccc3)o2)N(C)S(=O)(=O)c2ccccc21

> 300 °C
143 to 146 °C

Kindly give each listed record's melting point.
1. O=C1C2=NCCCN2c2ccc(F)cc21
2. CN(C)c1ccc(C(=O)C(C)(C)N(C)C)cc1
3. Cn1c(=O)c2c(N)nccc2n(C)c1=O
4. Cc1nc(C2CCC(NC(=O)OCC3c4ccccc4-c4ccccc43)CC2)cs1 (stereo not drawn)
5. COC(=O)c1cccc(-c2cccc(Oc3cccc(Cl)c3Cl)n2)c1

1. 150 to 152 °C
2. 89 to 91 °C
3. 229 to 230 °C
4. 140 to 141 °C
5. 105 to 106 °C

Kindly give each listed record's melting point.
1. O=S(=O)(Cl)c1ccc(-c2cccs2)s1
2. Clc1cccc(C(Cl)Cl)n1
3. O=C(O)[C@H](Cc1ccc(C(F)(F)F)cc1)[C@@H](O)c1ccc(Cl)nc1 (racemic)

63 to 64 °C
48 to 52 °C
145 to 146 °C

###

property-measured: melting point

[
  {
    "molecule": "CS(=O)(=O)Cc1cnc2ccccc2c1Cl",
    "melting point": "202 to 204 °C"
  },
  {
    "molecule": "On1c(C(F)(F)F)nc2ncc(Cl)cc21",
    "melting point": "264 to 266 °C"
  },
  {
    "molecule": "O=C1SC2CCN(Cc3ccccc3Cl)CC2=C1O (centres undefined)",
    "melting point": "121 °C"
  }
]

Kindly give each listed record's melting point.
1. Cn1c(C(F)(F)F)cc(=O)n(-c2cc(OC(=O)Nc3cccc(C(F)(F)F)c3)c(Cl)cc2F)c1=O
2. COC(=O)Cc1cc(Cl)c2c(c1)CCC(c1ccccc1)N2C (centres undefined)
3. CCCCN(CCCC)c1ccc(C=CC=Cc2ccc(C=CC3=C(C#N)C(=C(C#N)C#N)OC3(C)C)s2)c(OC)c1
4. CCn1cnc2c(Nc3cccc(C(F)(F)F)c3)nc(Cl)nc21
5. O=C(C=Cc1cccc(S(=O)(=O)NCc2ccc3c(c2)OCO3)c1)NO
6. CNc1nc(Cl)nc2c1ncn2C1CC(O)C(CO)O1 (centres undefined)

["153 to 155 °C", "78 to 80 °C", "185 to 187 °C", "129 to 130 °C", "163 °C", "163 to 165 °C"]

###

Please respond with reported melting point for every item in the list.

Recorded results for 8 molecules are shown here.
[
  {
    "molecule": "NC(=O)CCc1cccc(-c2nc(=O)c3ccccc3s2)n1",
    "value-measured": "236 °C"
  },
  {
    "molecule": "O=C1C(c2cccc(Br)c2)n2cncc2CN1Cc1ccncc1 (configuration not stated)",
    "value-measured": "50 to 54 °C"
  },
  {
    "molecule": "O=C1CCC(C(=O)O)(c2ccc(Cl)cc2)CC1",
    "value-measured": "162 to 164 °C"
  },
  {
    "molecule": "Cc1cc(O)ccc1-n1cc(C(=O)O)c(=O)cc1C=O",
    "value-measured": "230 to 250 °C"
  },
  {
    "molecule": "Cc1oc(-c2ccc3ccccc3c2)nc1COc1ccc(/C=C/C=O)cc1",
    "value-measured": "179 to 180 °C"
  },
  {
    "molecule": "CC(=O)OCC1OC(c2ccc(F)c(Cc3ccc(Cl)s3)c2)C(OC(C)=O)C(OC(C)=O)C1OC(C)=O (configuration not stated)",
    "value-measured": "130 to 131 °C"
  },
  {
    "molecule": "O=C(NC(=O)c1c(F)cccc1F)Nc1cc(Cl)c(Oc2ccc(Cl)c3ccccc23)c(Cl)c1",
    "value-measured": "237 to 239 °C"
  },
  {
    "molecule": "O=C1Nc2ccccc2N(C(=O)N2CCCC(CCNCC3CCCC3)C2)c2ncccc21 (configuration not stated)",
    "value-measured": "148 to 150 °C"
  }
]

Kindly give each listed record's melting point.
1. OCc1cnc2c(F)cccc2c1O
2. Clc1cccc(Cl)c1C1=NC2(CO1)COC(c1ccccc1)OC2 (configuration not stated)
3. CCN(CC)c1ccc(CNc2cc(C(=O)Nc3ccccc3)ccc2OC)cc1
4. CCOC(=O)c1csc([N+](=O)[O-])c1Br
5. O=C1C2=C(CCCC2)C(=O)N1c1ccc(O)cc1F

176 to 178 °C
158 to 160 °C
180 to 181 °C
94 to 95 °C
132 to 136 °C

Hey, just so you know, these numbers are from a melting point compilation (Tetko et al.; mined from patent text by program, amines drawn as free bases though some values may be those of a salt).
